# PROTOCOL DETAILS: Human HepG2 cell viability assay in 384 well format
# Assay type: toxicity, cell-based
# Parameters: dose 125 nL, time 70.5 hour; concentration not given beside the values
# RUN CONDITIONS: HepG2 cells, read-out: Inhibition
Entries annotated with measured cytotoxicity at 70.5 h
ENDPOINT NAME: cytotoxicity at 70.5 h (%)

[[record]]
compound = "Cn1ccnc1C(=O)N1CCC(Cn2cc(-c3ccsc3)nn2)CC1"
endpoint_result = -8.29

[[record]]
compound = "Cc1nc(C(C)C)ncc1C(=O)N1CCC(c2ccccc2C(=O)O)C1 (stereo unspecified)"
endpoint_result = -3.24

[[record]]
compound = "CC(C)CCN1CCc2nc(N3CCOCC3)nc(NC(C)C)c2C1"
endpoint_result = -16.5

[[record]]
compound = "O=C(c1ccnnc1)N1C[C@@H](OCC2CCCC2)[C@H]2OCCC[C@H]21"
endpoint_result = -3.04

[[record]]
compound = "Cc1cnccc1N1CCCN(C(=O)CCn2ccnc2C)CC1"
endpoint_result = -3.98

[[record]]
compound = "COc1cccc(CNCc2cccnc2)c1"
endpoint_result = 9.83


----------
Entries annotated with measured cytotoxicity at 70.5 h
# PROTOCOL DETAILS: Human HepG2 cell viability assay in 384 well format
# Type: toxicity, cell-based
# Set-up: dose 125 nL, time 70.5 hour; concentration not given beside the values
# RUN CONDITIONS: HepG2 cells, read-out: Inhibition
ENDPOINT NAME: cytotoxicity at 70.5 h (%)

[[record]]
compound = "COC(=O)[C@H]1CN(S(C)(=O)=O)CCN1S(C)(=O)=O"
reading_unit = "%"
endpoint_result = -2.09

[[record]]
compound = "CCOC(C)C(=O)N1CCN(S(C)(=O)=O)CC1 (centres undefined)"
reading_unit = "%"
endpoint_result = -112

[[record]]
compound = "O=C(Nc1nc(-c2ccccc2)ns1)N1CCC(CO)CC1"
reading_unit = "%"
endpoint_result = -12.6

[[record]]
compound = "O=C(c1cccc(S(=O)(=O)NCCc2cscn2)c1)N1CCOCC1"
reading_unit = "%"
endpoint_result = -1.05

[[record]]
compound = "O=C(c1ccnnc1)N1CCN(Cc2ccncc2)c2ncccc2C1"
reading_unit = "%"
endpoint_result = -6.87

[[record]]
compound = "Brc1cnc(NCCCOCC2CCOC2)nc1 (centres undefined)"
reading_unit = "%"
endpoint_result = -5.54

[[record]]
compound = "COc1ccc(C(=O)NCC(c2cccn2C)N2CCCC2)cc1OC (centres undefined)"
reading_unit = "%"
endpoint_result = -4.98

[[record]]
compound = "CC(C)c1nnc(NC(=O)CSCc2cc(=O)n3ccccc3n2)s1"
reading_unit = "%"
endpoint_result = -4.94

[[record]]
compound = "CC(=O)NCC1CCN(C(=O)NCCOc2ccc3c(c2)CCC3)CC1"
reading_unit = "%"
endpoint_result = -11.5

[[record]]
compound = "O=C(c1ccc2c(c1)[nH]c(=O)n2C1CCCC1)N1CCCSCC1"
reading_unit = "%"
endpoint_result = -8.62

[[record]]
compound = "CCOCC1CN(Cc2ccoc2)Cc2cn(CC3CC3)nc21 (centres undefined)"
reading_unit = "%"
endpoint_result = -19.8

[[record]]
compound = "O=C(NS(=O)(=O)c1ccccc1)c1ccccc1F"
reading_unit = "%"
endpoint_result = -4.29

[[record]]
compound = "Cc1ccsc1C(=O)N1CC(C(=O)NCC2CC2)C2(CCOCC2)C1 (centres undefined)"
reading_unit = "%"
endpoint_result = 7.19

[[record]]
compound = "COCC(=O)NCCC(=O)N1CCN(S(=O)(=O)c2cccc(Br)c2)CC1"
reading_unit = "%"
endpoint_result = -2.7

[[record]]
compound = "CCCOc1ccc(C2SCC(=O)Nc3c2c(=O)[nH]n3C(C)C)cc1 (centres undefined)"
reading_unit = "%"
endpoint_result = -18.7

[[record]]
compound = "CC(=O)N1CCC(n2ccc(-c3cnc(N4CCOCC4)nc3)n2)CC1"
reading_unit = "%"
endpoint_result = -5.97

[[record]]
compound = "COCc1ncc(-c2nccn2CCN(C)C)cn1"
reading_unit = "%"
endpoint_result = -2.63

[[record]]
compound = "O=C(c1nnn(-c2ccccc2F)c1-c1ccccn1)N1CCSCC1"
reading_unit = "%"
endpoint_result = -0.794

[[record]]
compound = "CCCc1n[nH]c(C2CN(Cc3nnc(C4CC4)n3C)CCO2)n1 (centres undefined)"
reading_unit = "%"
endpoint_result = -5.29

[[record]]
compound = "Cc1nn(C)c2ncnc(N3CCCC(C)(O)C3)c12 (centres undefined)"
reading_unit = "%"
endpoint_result = -6.93

[[record]]
compound = "CC(=O)NC[C@@]1(COc2cnccn2)C[C@@H](O)[C@@H](O)C1"
reading_unit = "%"
endpoint_result = -3.14

[[record]]
compound = "O=C(CCc1cccnc1)Nc1ccc(OCC2CCOCC2)cc1"
reading_unit = "%"
endpoint_result = -10.4

[[record]]
compound = "CCCNC(=O)c1sccc1N(C)S(=O)(=O)c1ccc(Cl)cc1"
reading_unit = "%"
endpoint_result = 20.9

[[record]]
compound = "CCc1nnc2n1CCN(C(=O)c1ccc(-c3ccco3)nc1C)C2"
reading_unit = "%"
endpoint_result = 10

